Below: a set of entries, each annotated with reported Kd.
# MEASURED_TARGET: T1, monkey Trop2 protein (Sino Biological, #90893-C08H) (monkey, UniProt A0A2K5UE71 27-274)
# T1 construct: bought protein; also called monkey Trop2 protein antigen (His tag)
# T1 sequence: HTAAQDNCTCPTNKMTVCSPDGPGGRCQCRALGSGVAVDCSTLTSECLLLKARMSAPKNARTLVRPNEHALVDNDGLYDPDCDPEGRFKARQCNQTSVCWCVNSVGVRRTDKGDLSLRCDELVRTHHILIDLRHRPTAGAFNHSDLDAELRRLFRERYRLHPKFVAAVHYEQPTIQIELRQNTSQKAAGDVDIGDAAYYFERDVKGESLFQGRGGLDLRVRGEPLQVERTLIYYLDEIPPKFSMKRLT
# ASSAY_OVERVIEW: BLI, Octet RED96, AHC sensor
RESULT_TYPE: Kd

INSERT INTO assay_data (binder, val) VALUES
  ('PR001128 (antibody, human IgG1, kappa, V domains shown, fully human IgG1/kappa; also called antibody No. (1)) VH: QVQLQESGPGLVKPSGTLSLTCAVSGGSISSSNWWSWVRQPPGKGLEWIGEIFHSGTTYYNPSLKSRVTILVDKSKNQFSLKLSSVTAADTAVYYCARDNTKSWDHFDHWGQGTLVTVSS VL: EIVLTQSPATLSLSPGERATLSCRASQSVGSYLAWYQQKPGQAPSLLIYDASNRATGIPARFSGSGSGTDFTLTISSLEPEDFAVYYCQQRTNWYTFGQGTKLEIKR', '< 0.001 nM'),
  ('PR001133 (antibody, human IgG1, kappa, V domains shown, fully human IgG1/kappa; also called antibody No. (5)) VH: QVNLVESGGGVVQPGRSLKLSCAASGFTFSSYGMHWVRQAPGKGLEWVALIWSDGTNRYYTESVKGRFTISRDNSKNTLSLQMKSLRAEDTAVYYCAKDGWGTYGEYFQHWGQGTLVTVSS VL: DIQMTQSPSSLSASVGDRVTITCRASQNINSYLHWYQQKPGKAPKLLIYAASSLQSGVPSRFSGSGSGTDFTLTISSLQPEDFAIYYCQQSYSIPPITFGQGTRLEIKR', '2.49 nM');
